target: CD38 NAD+ hydrolase activity in NH7-dCas9 cells (Jurkat clone) (Homo sapiens, UniProt P28907); construct: The assay utilized CD38 expressing NH7-dCas9 cells (Jurkat clone); experiment: Fluorescence-based NAD+ hydrolase activity assay with human T cell line NH7-dCas9 cells-Jurkat clone (Assay 1); conditions: read-out: Assay 1 Arithmetic mean IC50
Sequence (P28907 whole entry): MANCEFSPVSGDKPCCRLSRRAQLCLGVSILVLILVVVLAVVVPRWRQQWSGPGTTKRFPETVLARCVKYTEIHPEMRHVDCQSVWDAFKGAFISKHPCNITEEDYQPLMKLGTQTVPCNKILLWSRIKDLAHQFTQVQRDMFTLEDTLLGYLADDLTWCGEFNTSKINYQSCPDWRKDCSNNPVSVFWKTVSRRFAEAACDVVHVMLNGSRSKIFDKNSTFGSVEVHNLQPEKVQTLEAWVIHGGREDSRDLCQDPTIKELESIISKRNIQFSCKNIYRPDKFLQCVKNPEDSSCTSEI
pIC50: −log10 of the molar value.
quantity measured: pIC50

Past entries and their recorded results:
{"smiles record": "O=C(Nc1ccnc(C(F)(F)F)c1)c1cccc(-n2ccnc2)n1", "pIC50": "> 9.00"}
{"smiles record": "Cn1ccnc1-c1cccc(C(=O)Nc2cccnc2)n1", "pIC50": "7.30 to 9.00"}
{"smiles record": "Cc1ccc(NC(=O)c2cccc(-n3ccnc3)n2)cn1", "pIC50": "7.30 to 9.00"}
{"smiles record": "COc1cc(C(=O)Nc2ccnc(C(F)(F)F)c2)nc(-n2ccnc2)n1", "pIC50": "> 9.00"}
{"smiles record": "O=C(Nc1cccnc1)c1cncc(-n2ccnc2)n1", "pIC50": "> 9.00"}

Prompt line: pIC50 for "Cc1ccc(C(=O)Nc2cccnc2)nc1-n1ccnc1" ?
Response line: 6.00 to 7.29

Prompt line: pIC50 for "Cc1cc(NC(=O)c2cccc(-n3ccnc3)n2)ccn1" ?
Response line: 7.30 to 9.00

Prompt line: pIC50 for "O=C(Nc1cccnc1)c1cccc(-n2ccnc2)n1" ?
Response line: 7.30 to 9.00

Prompt line: pIC50 for "CNC(=O)c1cc(NC(=O)c2cccc(-n3ccnc3)n2)ccn1" ?
Response line: 7.30 to 9.00

Prompt line: pIC50 for "O=C(Nc1ccncc1)c1cccc(-n2ccnc2)n1" ?
Response line: 7.30 to 9.00

Prompt line: pIC50 for "CCOC(=O)c1cc(NC(=O)c2cccc(-n3ccnc3)n2)ccn1" ?
Response line: > 9.00

These entries and their values trace back to patent US12509451B2.
